- Test system: RXF 393 renal
- measurement notes: NCI-60 one-dose screen, 48 h
- applied conditions: 10 µM unless noted
Compounds without any hit were thinned out: in the full panel of roughly 83,000, 20% have a hit. Activity calls are given as the source filed them. The calls were made as follows: active = growth percent below 10; inactive = the rest.
Respond using exactly one of the listed classes: YES for active, NO for inactive

- compound: "Nc1ccn(-c2ccc(Br)cc2)c(=O)n1"
  group label: "NO"

Tell me the assay call for Cc1ccc(C2=NN3C(C2)c2cc(Br)ccc2OC32CCN(Cc3ccccc3)CC2)o1 (stereo not given) please.
NO

====

- Test system: SN12C renal
- measurement notes: NCI-60 one-dose screen, 48 h (100 = growth as untreated, 0 = no growth, -100 = all killed)
- applied conditions: 10 µM unless noted
About 83,000 compounds went through this panel and 20% of them were active in at least one assay; those are over-represented in the sample as a whole. Activity calls are given as the source filed them. How the source made its calls: active means growth percent below 10; inactive means the rest.
The reader will find reported growth values listed item by item below.

- compound: "Cc1cc(N2CCOCC2)nc(N[C@@H]2CCC[C@H](Nc3ccnc4cc(Cl)ccc34)C2)n1"
  tgt: "SN12C renal"
  recorded value: "22.7% (inactive)"

For `CS(=O)(=O)c1ccc(-n2nc(-c3ccc(Br)cc3)c3ccccc3c2=O)cc1` , what is its reported growth?
102% (inactive)

For `CCN(CC)CCCCNc1c2ccc(Cl)cc2nc2ccc(OC)cc12` , what is its reported growth?
4.57% (active)

For `COC(=O)c1ccc(Cn2cnc3c(N)ncnc32)cc1` , what is its reported growth?
102% (inactive)

For `NNCCc1ccc(NC(=O)CCCc2ccc(/C=C/C(=O)NO)cc2)cc1` , what is its reported growth?
55.8% (inactive)

For `O=C(COc1cccc(/C=C2\COc3ccccc3C2=O)c1)Nc1nccs1` , what is its reported growth?
78.4% (inactive)

====

- Tested on: NCI-H23 lung
- measurement notes: NCI-60 one-dose screen, 48 h (100 = growth as untreated, 0 = no growth, -100 = all killed)
- applied conditions: 10 µM unless noted
This is part of a sample that, as a whole, favours compounds with a hit. Of some 83,000 tested, about 20% had one in any assay. The source made the active and inactive calls. How the source made its calls: active means growth percent below 10; inactive means the rest.
readout type: growth

- compound: "N#Cc1nnn(-c2ccc(S(N)(=O)=O)cc2)c1NC(=O)CCl"
  growth: "100% (inactive)"
- compound: "COc1ccc(C(=S)N2CCN(c3cccc(Cl)c3)CC2)cc1"
  growth: "101% (inactive)"
- compound: "COc1cc2nc(N3CCCC3)nc(NCC3CCCCC3)c2cc1OC"
  growth: "57.3% (inactive)"
- compound: "O=C(Nc1ccc(Cl)cc1)c1cc2cc(F)ccc2cc1O"
  growth: "7.14% (active)"
- compound: "CCN(CC)c1ccc(-c2cc(-c3cc(OC)c(OC)c(OC)c3)nc(N3CCOCC3)c2C#N)cc1"
  growth: "56.2% (inactive)"

Notebook: pull reported growth for NCI-H23 lung, entry `O=c1nc2oc3ccc4ccccc4c3cc-2s1`
45.5% (inactive)

Notebook: pull reported growth for NCI-H23 lung, entry `COc1ccc(S(=O)(=O)N2CCCCCC2)cc1NC(=O)c1[nH]c(C)c2c1CCCCC2=O`
30.4% (inactive)

Notebook: pull reported growth for NCI-H23 lung, entry `O=C1/C(=C/c2ccc3c(c2)OCO3)SC(=S)N1CCc1ccc(O)cc1`
94.1% (inactive)

Notebook: pull reported growth for NCI-H23 lung, entry `O=[N+]([O-])c1cnc(N2CCN(CC3CC3)CC2)nc1N1CCN(CC2CC2)CC1`
95.4% (inactive)

Notebook: pull reported growth for NCI-H23 lung, entry `COC(=O)c1ccc(NC(=O)c2ccc(-c3cccc([N+](=O)[O-])c3)o2)cc1`
87.3% (inactive)
